System: Saccharomyces cerevisiae
Assay: protein stability index of tFT-peptide fusion (C-terminal peptide) (PSI (0-1 scale)); higher = more stable (slower turnover);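 also: PSI is a weighted mean of sequencing reads over stability bins, variants kept only with over 10 reads, mCherry proximal and sfGFP distal, peptide attached via GGGS linker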
Details: genetic background: wild type; temperature: 30 C
result_type: protein stability index
Would you mind answering with just the numeric figure?

Example sequences with recorded protein stability index:
VGTGPGLKRPCH 0.774
ARPASGCFCLFR 0.655
GVLLCVDGSGGE 0.762

Dear colleague, I am looking for the recorded protein stability index of the following sequence: `VGLGEWMGALGV` 0.663

# iterate: `PPPPPPPPPDPA` 0.666

====

Tested on: Saccharomyces cerevisiae
Assay: protein stability index of tFT-peptide fusion (C-terminal peptide) (PSI (0-1 scale)); higher = more stable (slower turnover)
Settings: genetic background: wild type; temperature: 30 C
Rule: protein stability index under 0.6 gives False, otherwise True.

Reference set (8 entries):
LVSLCYAYPRYC False
PPLPPLPLPNPP True
LRVPCPPCCVFV False
CLGVCAFSFCCN True
PPPPPSPDSNLF True
NRLPGNLKKKDN True
WLGGGGTVAHSP True
VPQMLVSVCLSN False

Please indicate if the recorded protein stability index for `VSDTRELSSDQI` meets or exceeds 0.6. True

# iterate: `GAWCSTGENDTA` True

# iterate: `CIPCLLAYPETC` True

# iterate: `PLYSLVSPPYAT` True

# iterate: `GFNIFFFFFFFV` False

# iterate: `VATVSLSVRNTS` True

# iterate: `RVIHLRKIHYEE` True

# iterate: `RSNECTSEMEVC` True

# iterate: `KQKKAKKQKKKK` True

# iterate: `WPGRAVCLGAGW` True

# iterate: `VARVGFRETLSF` True

# iterate: `VGEGWWQKGMEV` True

# iterate: `PLLLLLPPPPSP` True

# iterate: `LIVSTAGVTQFS` True

# iterate: `DQSSTIYKIIKE` True

====

Test system: Saccharomyces cerevisiae
Test: protein stability index of tFT-peptide fusion (C-terminal peptide) (PSI (0-1 scale)); higher = more stable (slower turnover)
Details: genetic background: cdc53-1; temperature: 37 C
result_type: protein stability index
Would you mind answering with just the numeric figure?

Example sequences with recorded protein stability index:
ARWGVGLWRGAS 0.756
CGSLDLPHQCLL 0.784

Read the next record carefully.
Dear colleague, I am looking for the recorded protein stability index of the following sequence: `GFLRTVHFLLLG` 0.675

====

Items are presented alongside their recorded protein stability index.
Test system: Saccharomyces cerevisiae
Experiment: protein stability index of tFT-peptide fusion (C-terminal peptide) (PSI (0-1 scale)); higher = more stable (slower turnover)
Conditions: genetic background: wild type; temperature: 37 C
Would you mind answering with just the numeric figure?

Example sequences with recorded protein stability index:
YFFFLFFLLPPF 0.498
PWAHIRTVQTYV 0.461
CFATTCLRCKWV 0.631
YCAMVAVGVVGG 0.493
CWSSVGLSVCGC 0.693
FQWILYIAKRVV 0.442
YVFSPLSCWASV 0.695
VGVCGSSGRVGG 0.717
VWFFGVVLGGLW 0.561
HINRTIWARYQV 0.429

Read the next record carefully.
Dear colleague, I am looking for the recorded protein stability index of the following sequence: `YGETRGGGRGRW` 0.65
